target: Serine/threonine-protein kinase ATR (Homo sapiens); assay: Inhibition of ATR (unknown origin) assessed as remaining activity at 1 uM in presence of [gamma33P-ATP] by radiometric assay
Sequence (Q13535 whole entry, looked up): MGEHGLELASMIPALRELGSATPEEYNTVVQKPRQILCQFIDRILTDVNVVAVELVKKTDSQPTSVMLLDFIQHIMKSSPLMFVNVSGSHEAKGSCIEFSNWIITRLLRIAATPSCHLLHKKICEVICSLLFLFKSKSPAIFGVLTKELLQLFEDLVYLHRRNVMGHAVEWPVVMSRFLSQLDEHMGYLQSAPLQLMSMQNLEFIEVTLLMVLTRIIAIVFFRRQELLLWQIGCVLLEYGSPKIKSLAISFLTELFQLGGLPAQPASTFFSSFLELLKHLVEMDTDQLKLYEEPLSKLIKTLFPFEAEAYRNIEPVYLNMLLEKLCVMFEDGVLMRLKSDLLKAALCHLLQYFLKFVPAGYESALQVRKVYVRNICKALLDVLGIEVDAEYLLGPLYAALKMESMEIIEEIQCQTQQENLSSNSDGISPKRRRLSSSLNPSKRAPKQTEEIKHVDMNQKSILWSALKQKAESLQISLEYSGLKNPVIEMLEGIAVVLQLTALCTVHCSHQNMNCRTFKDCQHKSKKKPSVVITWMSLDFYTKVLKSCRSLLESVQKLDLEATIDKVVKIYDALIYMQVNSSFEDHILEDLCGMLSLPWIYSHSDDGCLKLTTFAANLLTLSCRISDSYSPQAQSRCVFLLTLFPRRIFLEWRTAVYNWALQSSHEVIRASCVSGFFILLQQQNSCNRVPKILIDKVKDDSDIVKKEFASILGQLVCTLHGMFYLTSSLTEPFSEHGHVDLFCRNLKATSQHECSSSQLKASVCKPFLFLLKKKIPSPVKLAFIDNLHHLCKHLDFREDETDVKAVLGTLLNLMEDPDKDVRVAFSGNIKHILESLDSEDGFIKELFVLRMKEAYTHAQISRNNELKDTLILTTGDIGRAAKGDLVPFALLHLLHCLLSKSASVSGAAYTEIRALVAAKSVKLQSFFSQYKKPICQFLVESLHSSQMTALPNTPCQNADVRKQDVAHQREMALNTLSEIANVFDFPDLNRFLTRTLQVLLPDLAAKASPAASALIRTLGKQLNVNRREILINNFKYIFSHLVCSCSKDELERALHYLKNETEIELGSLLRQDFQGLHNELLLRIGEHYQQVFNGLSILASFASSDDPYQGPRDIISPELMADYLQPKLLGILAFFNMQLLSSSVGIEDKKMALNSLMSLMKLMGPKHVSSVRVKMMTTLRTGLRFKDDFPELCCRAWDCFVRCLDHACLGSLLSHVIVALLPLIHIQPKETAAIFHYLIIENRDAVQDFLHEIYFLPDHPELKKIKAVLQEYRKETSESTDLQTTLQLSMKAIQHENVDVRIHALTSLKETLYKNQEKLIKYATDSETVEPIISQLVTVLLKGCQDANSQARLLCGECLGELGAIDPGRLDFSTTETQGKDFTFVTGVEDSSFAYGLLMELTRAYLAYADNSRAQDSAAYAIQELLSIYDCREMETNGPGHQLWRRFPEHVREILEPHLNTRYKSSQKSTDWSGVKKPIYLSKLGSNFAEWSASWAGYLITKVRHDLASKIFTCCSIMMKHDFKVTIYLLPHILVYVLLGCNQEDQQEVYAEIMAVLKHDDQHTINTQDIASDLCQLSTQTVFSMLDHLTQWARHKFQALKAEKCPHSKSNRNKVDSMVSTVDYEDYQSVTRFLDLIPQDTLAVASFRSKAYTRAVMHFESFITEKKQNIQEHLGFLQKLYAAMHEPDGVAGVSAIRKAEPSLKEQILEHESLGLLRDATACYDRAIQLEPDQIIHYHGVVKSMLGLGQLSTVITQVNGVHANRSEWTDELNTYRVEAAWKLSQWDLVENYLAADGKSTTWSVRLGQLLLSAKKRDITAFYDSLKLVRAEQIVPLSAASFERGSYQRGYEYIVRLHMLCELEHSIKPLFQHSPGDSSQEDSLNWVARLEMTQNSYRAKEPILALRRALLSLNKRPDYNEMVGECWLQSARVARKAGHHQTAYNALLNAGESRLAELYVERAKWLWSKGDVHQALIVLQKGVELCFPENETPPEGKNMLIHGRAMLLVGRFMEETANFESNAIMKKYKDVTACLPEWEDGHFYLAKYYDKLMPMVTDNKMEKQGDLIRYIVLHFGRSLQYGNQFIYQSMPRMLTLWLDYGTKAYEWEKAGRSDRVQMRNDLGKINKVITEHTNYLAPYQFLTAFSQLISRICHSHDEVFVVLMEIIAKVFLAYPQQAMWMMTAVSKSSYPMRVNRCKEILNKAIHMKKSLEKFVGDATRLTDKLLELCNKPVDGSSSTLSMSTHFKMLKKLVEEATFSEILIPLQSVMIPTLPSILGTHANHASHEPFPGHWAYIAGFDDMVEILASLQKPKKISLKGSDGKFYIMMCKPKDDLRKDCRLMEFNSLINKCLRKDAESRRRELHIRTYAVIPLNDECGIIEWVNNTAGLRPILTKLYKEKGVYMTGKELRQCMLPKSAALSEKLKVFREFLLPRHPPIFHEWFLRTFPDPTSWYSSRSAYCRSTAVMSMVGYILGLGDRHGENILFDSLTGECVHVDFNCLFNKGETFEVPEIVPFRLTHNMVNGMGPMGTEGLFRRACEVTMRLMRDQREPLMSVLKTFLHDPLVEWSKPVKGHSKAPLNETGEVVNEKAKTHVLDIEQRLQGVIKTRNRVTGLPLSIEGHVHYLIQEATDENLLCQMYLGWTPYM
PROPERTY: Activity (%)
Value expressed in %; do not type the unit.

Please supply the value of reported Activity for the item "CN(C)CCCOc1ccc(-c2ccc3ncc(N(C)C(=O)Nc4ccc(Cl)cc4)nc3c2)cn1"
111

Identify measured Activity associated with "C=CCNC(=O)N(C)c1cnc2ccc(-c3ccc(OCCCN(C)C)nc3)cc2n1"
103

Look up and state reported Activity for "CCNC(=O)N(C)c1cnc2ccc(-c3ccc(OCCCN(C)C)nc3)cc2n1"
104

Query Activity for "CN(C)CCCOc1ccc(-c2ccc3ncc(N(C)C(=O)N[C@]45C[C@@H]6C[C@H](C[C@@H](C6)C4)C5)nc3c2)cn1"
101

###

biological target: UniProt:Q13315; experiment: Inhibition of ATM (unknown origin) preincubated with compound for 30 mins followed by substrate addition and measured after 2 hrs by HTRF method
Please go through the items and note down their IC50.
Record the value in nM, omitting the unit from your answer.

State IC50 (UniProt:Q13315) of "CN(C)CCCOc1ccc(-c2ccc3ncc(N(C)C(=O)N[C@]45C[C@@H]6C[C@H](C[C@@H](C6)C4)C5)nc3c2)cn1" .
8

Answer briefly: IC50 recorded on UniProt:Q13315 for "Cc1nc(OCCCN2CCCCC2)ccc1-c1ccc2ncc(N(C)C(=O)NC(C)C)nc2c1"
9

Fill: IC50 (UniProt:Q13315) for this compound "CC(C)NC(=O)N(C)c1cnc2ccc(-c3ccc(OCCCN4CCCCC4)nc3C#N)cc2n1"
16

###

What Activity was measured for each of the following?
biological target: Serine-protein kinase ATM (Homo sapiens, UniProt Q13315); assay: Inhibition of ATM (unknown origin) assessed as remaining activity at 1 uM preincubated with compound for 30 mins followed by substrate addition and measured after 2 hrs by HTRF method relative to control; conditions: time 2.5 hrs
Provide the reading as a plain figure in %.

Name the recorded Activity of the molecule listed here: CC(C)NC(=O)N(C)c1cnc2ccc(-c3ccc(OC4CCC(N(C)C)CC4)nc3)cc2n1 (stereo not given)
54

Fill in Activity for record "CN(C)CCCOc1ccc(-c2ccc3ncc(NC(=O)NC4CCCC4)nc3c2)cn1"
-5

Output Activity of "CN(C)CCCOc1ccc(-c2ccc3ncc(NC(=O)NC(C)(C)C)nc3c2)cn1"
-2

Tell us which Activity value is on record for "CC(C)NC(=O)N(C)c1cnc2ccc(-c3ccc(OCCN(C)C)nc3)cc2n1"
-2

Tell me its Activity given "CCN(CC)CCCOc1ccc(-c2ccc3ncc(N(C)C(=O)NC(C)C)nc3c2)cn1" as the entry.
-3

###

Give half-life at 1 µM for every item shown.
assay: Metabolic stability in human liver microsomes assessed as half life at 1 uM in presence of NADPH-regenerating system by LC-MS/MS analysis; format: ADME, Microsome
Hi! Could you send only the number? It should be in min, unit omitted.

Dear colleague, please send me the reported half-life at 1 µM for "CN(C)CCCOc1ccc(-c2ccc3ncc(NC(=O)NC4CCCCC4)nc3c2)cn1" when you can.
5

Provide one value: measured half-life at 1 µM of "CCCNC(=O)Nc1cnc2ccc(-c3ccc(OCCCN(C)C)nc3)cc2n1"
12

Give the reported half-life at 1 µM for this molecule. "CC(C)NC(=O)N(C)c1cnc2ccc(-c3ccc(OCCCN4CCCC4)nc3F)cc2n1"
204

Dear colleague, please send me the reported half-life at 1 µM for "CCNC(=O)N(C)c1cnc2ccc(-c3ccc(OCCCN(C)C)nc3)cc2n1" when you can.
11

Note half-life at 1 µM for the molecule shown: "CCN(CC)CCCOc1ccc(-c2ccc3ncc(N(C)C(=O)NC(C)C)nc3c2)cn1"
99

Find the measured half-life at 1 µM of "CC(C)NC(=O)Nc1cnc2ccc(-c3ccc(OCCCN(C)C)nc3)cc2n1" and report it.
15

Specify measured half-life at 1 µM for "CC(C)NC(=O)N(C)c1cnc2ccc(-c3ccc(OCCCN4CCCCC4)nc3)cc2n1" .
770

Complete the entry with half-life at 1 µM for "CC(C)NC(=O)N(C)c1cnc2ccc(-c3ccc(OCCCN4CCOCC4)nc3)cc2n1"
61

Write down half-life at 1 µM measured for item CC(C)NC(=O)N(C)c1cnc2ccc(-c3ccc(OCC4CCCN(C)C4)nc3)cc2n1 (configuration not stated)
55

Identify half-life at 1 µM associated with the molecule "CN(C)CCCOc1ccc(-c2ccc3ncc(N(C)C(=O)N[C@]45C[C@@H]6C[C@H](C[C@@H](C6)C4)C5)nc3c2)cn1"
73

Let me know recorded half-life at 1 µM for "C=CCNC(=O)Nc1cnc2ccc(-c3ccc(OCCCN(C)C)nc3)cc2n1" , thanks.
9

Report half-life at 1 µM for "CN(C)CCCOc1ccc(-c2ccc3ncc(N(C)C(=O)NC4CC4)nc3c2)cn1"
41

Indicate the recorded half-life at 1 µM value for this molecule: "CC(C)NC(=O)N(C)c1cnc2ccc(-c3ccc(OCCCN4CCCCC4)nc3F)cc2n1"
187

Give recorded half-life at 1 µM. "CCCCNC(=O)N(C)c1cnc2ccc(-c3ccc(OCCCN(C)C)nc3)cc2n1"
22

Look up and report measured half-life at 1 µM for this entry: "CC(C)NC(=O)N(C)c1cnc2ccc(-c3ccc(OCCN4CCCCC4)nc3)cc2n1"
38

Input CC(C)NC(=O)N(C)c1cnc2ccc(-c3ccc(OC(C)CN(C)C)nc3)cc2n1 (configuration not stated) , output reported half-life at 1 µM.
55

Let me know recorded half-life at 1 µM for "CC(C)NC(=O)N(C)c1cnc2ccc(-c3ccc(OCCCN4CCCCC4)nc3C#N)cc2n1" , thanks.
277

// Input: "CN(C)CCCOc1ccc(-c2ccc3ncc(NC(=O)NC(C)(C)C)nc3c2)cn1" . Output its half-life at 1 µM only.
8

Could you please provide reported half-life at 1 µM for "CC(C)NC(=O)N(C)c1cnc2ccc(-c3ccc(OCCCN4CCN(C)CC4)nc3)cc2n1" ? Thanks!
107

Give recorded half-life at 1 µM. "COCc1ccc(-c2ccc3ncc(C(N)=O)c(N[C@@H](C)C4CCOCC4)c3c2)cn1"
193

Provide half-life at 1 µM value for the following molecule: "CN(C)CCCOc1ccc(-c2ccc3ncc(N(C)C(=O)Nc4ccccc4Cl)nc3c2)cn1"
33

Quote half-life at 1 µM reported for "CC(C)NC(=O)N(C)c1cnc2ccc(-c3ccc(OCCCN4CCCC4=O)nc3)cc2n1" please.
90
